assay: NCI Yeast Anticancer Drug Screen. Data for the mlh1 rad18 strain (AID 175); conditions: S. cerevisiae mlh1 rad18 strain growth inhibition; at 5.0 µM (retest, dose inferred, filed as 0.5); active compounds read high
About 79,000 compounds went through this panel and 15% of them were active in at least one assay; those are over-represented in the sample as a whole. Residues, ends and D or L forms follow the SMILES beside them. *: point of attachment. Fmoc = O=C(OCC1c2ccccc2-c2ccccc21)*; Boc = CC(C)(C)OC(=O)*
Measured Metric: growth inhibition (%)

| Compound | Measured Metric | Result Value |
| --- | --- | --- |
| O=C(O)C(=Cc1ccc(-c2ccccc2)cc1)C(=O)O | growth inhibition | -2 |
| COc1ccc(C(C)c2cc3c(cc2OC(C)O)OCO3)cc1 (centres undefined) | growth inhibition | -1 |
| Cc1c(Cl)c(C)c(Cl)c(O)c1Cl | growth inhibition | 33 |
| COc1ccc2nc(CCc3ccccc3)ccc2c1 | growth inhibition | -6 |
| CC(C)(C)OC(=O)NCCCCC(NC(=O)C(Cc1c[nH]c2ccccc12)NC(=O)OCC1c2ccccc2-c2ccccc21)C(=O)O (centres undefined) (Fmoc-Trp-Lys(Boc)-OH; configuration not given here) | growth inhibition | -11 |
| O=C1C(/C=C/c2ccc(Cl)cc2)=NNC2N1N=C1NC(=O)C3(NN12)c1ccccc1-c1ccccc13 (centres undefined) | growth inhibition | -34 |
| COC(=N)c1ccc(O)c(C)c1 | growth inhibition | -123 |
| Cc1cccc(/C=N/NC(=S)NC2CCCCC2)n1 | growth inhibition | -19 |
| CC1(c2ccccc2)O[C@@H]2C[C@H]3[C@@H]4CCC5=CC(=O)C=C[C@]5(C)[C@@]4(F)[C@@H](O)C[C@]3(C)[C@]2(C(=O)CO)O1 (some centres undefined) | growth inhibition | -4 |
| CC(=O)/C=C/c1cc([N+](=O)[O-])ccc1O | growth inhibition | 24 |
| COc1ccc2cc(C(C)C(=O)N3CCOC3=O)ccc2c1 (centres undefined) | growth inhibition | -28 |
| O=[N+]([O-])c1cc[n+]([O-])c(Cl)c1 | growth inhibition | 1 |
| CCCCOc1ccc2nc(C)cc(N=[N+]=[N-])c2c1 | growth inhibition | 8 |
| O=[N+]([O-])c1cccc2nc3ccccc3c(NCCCN3CCCCC3)c12 | growth inhibition | 97 |

----------
assay: NCI Yeast Anticancer Drug Screen. Data for the rad52 strain (AID 147);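 note: 0% = growth of vehicle-treated control cultures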; settings: S. cerevisiae rad52 mutant growth inhibition; at 1.2 µM; active compounds read high
About 79,000 compounds went through this panel and 15% of them were active in at least one assay; those are over-represented in the sample as a whole.
Recorded growth inhibition values for a group of compounds are listed next.

| Compound | growth inhibition [%] |
| --- | --- |
| CC1=C(C)C(=O)C2=C(OCCO2)C1=O | -6 |
| BrC1C2CCC3OC3C12 (stereo not drawn) | 3 |
| O=[N+]([O-])c1cc[n+]([O-])c(Cl)c1 | 1 |
| CCCNCC(=O)O[C@]1(CC)C(=O)OCc2c1cc1n(c2=O)Cc2cc3ccccc3nc2-1 | 80 |
| CC(C)OP(=O)(OC(C)C)C(=NCCO)NNc1ccc([N+](=O)[O-])cc1 | 8 |
| CCCCCCCC/C=C\CCCCCCCCN | 4 |
| CC(=O)/C=C/c1cc([N+](=O)[O-])ccc1O | -47 |
| NC(N)=NC(N)=Nc1ccccc1 (tested in a mixture with another compound) | -3 |
| CC12CCC(CC(=O)/C1=C(/Br)I)C2(C)C (stereo not drawn) | 2 |
| O=C(Cc1ccccc1)NNc1nc(NNC(=O)c2ccncc2)nc(Nc2ccc([N+](=O)[O-])cc2)n1 | 23 |
| COc1ccc(C(C)c2cc3c(cc2OC(C)O)OCO3)cc1 (stereo not drawn) | -2 |
| CCOP(=O)(OCC)/C(C#N)=C/c1ccc(-c2ccc(F)cc2F)o1 | 2 |
| Cc1ccc(S(=O)(=O)NC(=O)C2C(=O)CC3(CCCCC3)CC2=O)cc1 | -22 |
| CC(C)[Si]1(C(C)C)OCC2OC(n3cnc4c(N)ncnc43)C(N)C2O[Si](C(C)C)(C(C)C)O1 (stereo not drawn) | 3 |
| O=C1Oc2ccccc2C(=O)/C1=C/N1C(=O)N/C(=C\c2ccccc2Br)C1=O | 1 |
| c1c[nH]c(CN2CCN(Cc3ncc[nH]3)CC2)n1 | 0 |
| COC(=O)C(Cl)(Cl)N=Nc1c(Cl)cc(Cl)c(C)c1Cl | -14 |
| CCCCS/C(=C(/C#N)C(N)=O)c1cc2c([nH]1)CCCC2 | 24 |
| O=C(Nc1cccs1)c1ccccc1 | -5 |
| CC1=CC(=C(c2ccc(N)c(C)c2)c2ccc(N)c(C)c2)C=CC1=N | 24 |
| Cc1ccc(Nc2n[nH]c(=S)s2)c(C)c1 | -42 |
| COC(=O)C1CCCCC1C(=O)Nc1ccccc1 (stereo not drawn) | 0 |
| CN(C)CCCn1c2c3ccccc3ccc2c2oc(=O)c3ccccc3c21 | 3 |
| CCCCCCC=C(C(=O)OCC)C(=O)OCC | -2 |
| COc1ccc(C(=O)/C=C\c2ccc(Cl)c(Cl)c2)cc1 | 16 |
| CCN(CC)CC(=O)c1ccc2cc(Cl)c3ccccc3c2c1 | 14 |
| O=c1c2ccccc2nc(-c2ccc(Cl)cc2)n1O | 81 |
| Nc1cccc(-c2cc[cH-]c2)c1.[Fe+2].c1cc[cH-]c1 | -2 |
| C=CC(C)(C)N1C(=O)C(C(C)=O)=C(O)C1Cc1c[nH]c2ccccc12 (stereo not drawn) | -1 |
| Cc1c2c(nc3ccccc13)C(=O)c1cccnc1C2=O | -10 |
| COC(=O)c1cnc(Cl)c([N+](=O)[O-])c1 | 17 |
| COc1ccc2c3c1OC(C)C31CC(=O)CCC1CC2 (stereo not drawn) | -4 |
| Cc1nc2sc3c(c2c(=O)o1)CCCC3 | 0 |
| CN(C)/C(=N/C(=S)Nc1ccccc1)SCc1ccccc1 | -3 |
| O=S1(=O)CCC2=CC(C(F)(F)F)=CC(C(F)(F)F)=CN21 | 26 |
| O=C(CCSC1=NCCCN1)c1ccc(F)cc1 | -38 |
| CC(C)(C)c1ccc2c(c1)C(=O)c1ccccc1C2=O | -9 |
| CCN(CC)C(=S)N/N=C(\C)c1ccccc1O | -36 |
| CN(C)N=Nc1ccc(N(C)C)cc1 | -1 |
| Cc1ccccc1NC(=O)c1c(C)oc2c1C(=O)c1ccccc1C2=O | -7 |
| CC(C)OC(=O)NNc1cc(Cl)ccc1Cl | 0 |
| CN(C)CCNC(=Cc1ccc2ccccc2[n+]1C)NCCN(C)C | 0 |
| O=[N+]([O-])c1ccc(C(c2c[nH]c3ccccc23)c2c[nH]c3ccccc23)cc1 | 82 |

----------
experiment: NCI Yeast Anticancer Drug Screen. Data for the rad50 strain (AID 155);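 note: 0% = growth of vehicle-only cultures of the same strain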; conditions: S. cerevisiae rad50 strain growth inhibition; at 100.0 µM
About 79,000 compounds went through this panel and 15% of them were active in at least one assay; those are over-represented in the sample as a whole. The source made the active and inactive calls. Cut-off read from the data, not from the text of the source: active = growth inhibition above about 70%; inactive = the rest. Residues, ends and D or L forms follow the SMILES beside them. *: point of attachment. Fmoc = O=C(OCC1c2ccccc2-c2ccccc21)*; Boc = CC(C)(C)OC(=O)*
Outcome codes: Y for active, N for inactive

| Compound | Class Name |
| --- | --- |
| O=C(/C(=C/c1ccc(O)cc1)c1ccccc1)c1ccccc1 | Y |
| COc1ccc2cc(C(C)C(=O)N3CCOC3=O)ccc2c1 (configuration not stated) | N |
| CCC(=O)C1=C(O)c2cc(OC)ccc2CC1C(=O)OC (configuration not stated) | N |
| COc1cc(C2C3=C(COC3=O)Oc3cc4c(cc32)OCO4)cc(OC)c1O (configuration not stated) | Y |
| NC(=S)N1N=C2c3ccccc3CC[C@H]2[C@@H]1c1ccc(Cl)cc1 | Y |
| Cc1c(C(=O)/C=C/c2ccccc2[N+](=O)[O-])[n+](=O)c2ccccc2n1[O-] | Y |
| O=C(c1cc(=O)c2ccc(O)cc2o1)c1ccc(Cl)cc1Cl | Y |
| Cc1cccc2c(Cl)c3cccc(C)c3nc12 | N |
| NC(N)=NS(=O)(=O)c1ccc(Nc2c3ccccc3nc3c(C(=O)NC(CO)(CO)CO)cccc23)cc1 | Y |
| CCOC(=S)SSSC(=S)OCC | Y |
| CN1C(=O)C(CC(=O)O)NC1=S (configuration not stated) | N |
| O=C(O)C(=Cc1ccc(-c2ccccc2)cc1)C(=O)O | Y |
| CCOc1ccc2nc3ccccc3c(N)c2c1 | Y |
| O=C(Nn1c(-c2ccccc2)nc2ccccc2c1=O)c1ccc(CS)cc1 | Y |
| N#CSCC1COc2ccccc2O1 (configuration not stated) | Y |
| CCOC(=O)/C(=C/c1cccc(Cl)c1)N(CC)CC | Y |
| CO[C@@]1([C@@H](Cl)c2ccccc2)C(=O)N(C)/C(=C\c2ccccc2)C(=O)N1C | N |
| N#C/C(=C\NC(=S)Nc1ccc(S(N)(=O)=O)cc1)C(=O)c1ccc2ccccc2c1 | N |
| O=C(NCCNCCNC(=O)c1cc(-c2ccccc2)nc2ccccc12)c1cc(-c2ccccc2)nc2ccccc12 | N |
| O=C(O)c1cc2c(cc1S(=O)(=O)O)C1C(C3C2C2(Cl)C(Cl)=C(Cl)C3(Cl)C2(Cl)Cl)C2(Cl)C(Cl)=C(Cl)C1(Cl)C2(Cl)Cl (configuration not stated) | Y |
| Nc1ccc2c(c1)C(=O)c1c(F)cccc1-2 | Y |
| CN(C)N=Nc1ccc(N(C)C)cc1 | N |
| CC(C)(C)OC(=O)NCCCCC(NC(=O)C(Cc1c[nH]c2ccccc12)NC(=O)OCC1c2ccccc2-c2ccccc21)C(=O)O (configuration not stated) (Fmoc-Trp-Lys(Boc)-OH; configuration not given here) | N |
| C[n+]1c(/C=C/c2ccc(/C=N/NC(=O)c3ccc(C(=O)N/N=C/c4ccc(/C=C/c5cn6ccccc6[n+]5C)cc4)cc3)cc2)cn2ccccc21 | Y |
| C[C@H](CCC1=NC(C)(C)CO1)C1CCC2[C@@H]3C(O)C[C@@H]4CC(O)CC[C@]4(C)C3CC[C@@]21C (some centres not stated) | Y |
| CCCCCCCN1C(=O)c2ccccc2C1=O | N |
| Cc1cccc(/C=N/NC(=S)NC2CCCCC2)n1 | N |
| CCCCCCCCCCCCOCCOCCOCC(N)=O | Y |
| COc1cccc(/C=C2\S/C(=N/Nc3nc(-c4ccc([N+](=O)[O-])cc4)cs3)NC2=O)c1O | Y |
| Cc1ccnc2c(O)cccc12 | Y |
| Cc1ccc(Nc2n[nH]c(=S)s2)c(C)c1 | Y |
| CC(CN(C)C)C(=O)/C=C/c1ccc(Cl)c(Cl)c1 (configuration not stated) | Y |
| O=CC1(F)CC1(c1ccccc1)c1ccccc1 (configuration not stated) | Y |
| CCCCCCCSCC1C(=O)C23C(O)C1CCC2C12COC3(O)C(O)C1C(C)(C)CCC2O (configuration not stated) | Y |
| N#Cc1nc(Nc2ccc(Cl)cc2)sc1N | N |
| OC1(C#CI)CCCCC1 | Y |
| CN(CCOc1ccc(Cl)cc1)CCOc1ccc(Cl)cc1 | Y |
| CN(C)CCCn1c2c3ccccc3ccc2c2oc(=O)c3ccccc3c21 | Y |
| CC1=NN(C(=O)c2ccccc2O)C(=O)/C1=C/c1ccco1 | Y |
| COc1cc(NCCCCNCC(C)(C)C)c2ncccc2c1 | N |
| Nc1cc2c(cc1N)-c1ccccc1C2=O | Y |
| CC(C(=O)N1C(=O)N(C(=O)C(C)C(O)c2ccccc2)C2CCCCC21)C(O)c1ccccc1 (configuration not stated) | N |
